- system_tested: T1, extracellular domain of activin receptor type IIB (ActRIIBecd), biotinylated (Homo sapiens (Human), UniProt Q13705 27-117, amino-biotinylated with amine-PEG3-Biotin)
- T1 construct: immobilised on a streptavidin-coated sensor chip; also called biotinylated ActRIIBecd; extracellular domain of ActRIIB
- T1 sequence: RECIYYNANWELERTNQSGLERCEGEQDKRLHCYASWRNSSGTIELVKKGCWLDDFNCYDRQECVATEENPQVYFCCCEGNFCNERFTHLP
- procedure_summary: Mean KD column of Table 5; method not restated (BIAcore as Example 5); species also listed in Table 4
pKd: −log10 of the molar value. Bridges are numbered along the chain shown (N, C = ends).

# binder, pKd
measured = [
    ("SEQ ID NO: 316, cysteine pairs C67-C71^a, C8-C41^a, C9-C43^a, C109-C109^b (designed binder, disulfides C67-C71 (intra), C8-C41 (intra), C9-C43 (intra), C109-C109 (inter), homodimer by intermolecular disulfide) NSKDPKACCVPTELSAPSPLYLDENEKPVLKNYQDMVVHGCGCRVDFKDVGWNDHAVAPPGYHAFYCHGECPFPLADHLNSDNHAIVQTKVNSVGQAKRKGYKRLKSSCKRHPLY", 8.27),
    ("SEQ ID NO: 194, cysteine pairs C23-C65^a (designed binder, disulfides C23-C65 (intra)) VDFSDVGWNDWIVAPPGYHAFYCHGECPFPLADHLNSTNHAIVQTLVNSVAQAKHKQRKRLKSSCKRHPLY", 7.34),
    ("SEQ ID NO: 212, cysteine pairs C59-C59^b, C8-C41^a, C9-C43^a (designed binder, disulfide 8-41, 9-43; also: homodimer via intermolecular C59-C59 disulfide, homodimer by intermolecular disulfide) NSKIPKACCVPTELSAISMLYLDENEKVVLKNYQDMVVEGCGCRAQAKHKQRKRLKSSCKRHPLY", 7.74),
    ("SEQ ID NO: 268, cysteine pairs C23-C27^a, C65-C65^b, C79-C114^a, C80-C112^a (designed binder, disulfides C23-C27 (intra), C65-C65 (inter), C79-C114 (intra), C80-C112 (intra), homodimer by intermolecular disulfide) VDFSDVGWNDWIVAPPGYHAFYCHGECPFPLADHLNSTNHAIVQTLVNSVAQAKHKQRKRLKSSCKRHPLYNSKIPKACCVPTELSAISMLYLDENEKVVLKNYQDMVVEGCGCR", 8.06),
]
